molecular target: guinea pig brain membranes; test: Binding test with guinea pig brain membranes; settings: tested on guinea pig brain membranes; read-out: IC50 = 100 μM
Where a SMILES comes first, the peptide text is derived from it.
Measured pIC50, listed per entry.
// pIC50 is dimensionless: -log10 of concentration (M)

CSCC[C@H](NC(=O)[C@H](C)NC(=O)[C@H](CCCCN)NC(=O)[C@H](CC(N)=O)NC(=O)[C@H](C)NC(=O)[C@H](CCC(=O)O)NC(=O)[C@H](CCC(=O)O)NC(=O)[C@H](CCCCN)NC(=O)[C@H](C)NC(=O)[C@H](CC(=O)O)NC(=O)[C@H](CCC(N)=O)NC(=O)[C@H](CCC(=O)O)NC(=O)[C@H](C)NC(=O)[C@@H](N)Cc1ccccc1)C(N)=O [Example 48, H-FAEQDAKEEANKAM-NH2] (H-FAEQDAKEEANKAM-NH2)
5.83

*Q* Fill blank: measured pIC50 of the molecule CC(C)C[C@H](NC(=O)[C@H](CO)NC(=O)[C@H](Cc1c[nH]cn1)NC(=O)[C@H](CO)NC(=O)[C@H](CO)NC(=O)[C@@H](N)CO)C(=O)N[C@@H](CO)C(=O)N[C@@H](Cc1c[nH]cn1)C(=O)N[C@@H](CCCCN)C(N)=O [Example 68, H-SSSHSLSHK-NH2] (H-SSSHSLSHK-NH2) is ____.
*A* 7.60

*Q* Fill blank: measured pIC50 of the molecule CSCC[C@H](NC(=O)[C@H](CCC(N)=O)NC(=O)[C@H](CCC(=O)O)NC(=O)[C@H](CCSC)NC(=O)[C@H](CC(C)C)NC(=O)[C@@H]1CCCN1C(=O)CNC(=O)[C@@H]1CCCN1C(=O)[C@@H]1CCCN1C(=O)CNC(=O)CNC(=O)[C@@H]1CCCN1C(=O)CNC(=O)CN)C(=O)NCC(N)=O [Example 36, H-GGPGGPPGPLMEQMG-NH2] (H-GGPGGPPGPLMEQMG-NH2) is ____.
*A* 5.54
